Origin of the recorded values: the supplement of paper PMC10567573

B1: CCDC6 (parent)
chain: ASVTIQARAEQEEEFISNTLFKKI

Variants of: B1
Test: protein stability index of a GFP-peptide fusion (GPS, HEK-293T) (PSI 1-6); higher = more stable;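 further: lentivirally expressed fusions sorted by FACS into six bins by GFP to DsRed ratio, PSI derived from sequencing read proportions per bin multiplied by bin number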
Settings: c terminus: a fixed tail appended
Values of protein stability index greater than or equal to 3 map to criterion met; values below map to criterion not met.

Does the variant `S2K` have recorded protein stability index that is 3 or more? criterion met

Does the variant `E10D` have recorded protein stability index that is 3 or more? criterion met

Does the variant `E13P` have recorded protein stability index that is 3 or more? criterion met

Does the variant `A9D` have recorded protein stability index that is 3 or more? criterion met

Does the variant `E14Y` have recorded protein stability index that is 3 or more? criterion not met

Does the variant `Q6M` have recorded protein stability index that is 3 or more? criterion not met

Does the variant `Q6R` have recorded protein stability index that is 3 or more? criterion met

Does the variant `Q6S` have recorded protein stability index that is 3 or more? criterion met

Does the variant `A1H` have recorded protein stability index that is 3 or more? criterion met

Does the variant `I16N` have recorded protein stability index that is 3 or more? criterion met

Does the variant `F21C` have recorded protein stability index that is 3 or more? criterion met

Does the variant `N18G` have recorded protein stability index that is 3 or more? criterion met
